- Tested on: Malme-3M
- protocol.description: NCI tumour cell line growth inhibition, 48 h
Activity calls are given as the source filed them. Cut-off read from the data, not from the text of the source: active = GI50 up to about 1.1 µM and inactive = higher.
Answer with one of the outcomes given here: active, inactive

# count of solved cases: 4
compound	assigned.class
CCOC(=O)c1ccc2nc(-c3ccc(S(=O)(=O)F)cc3)cc(O)c2c1	inactive
CC(C)OCC(O)COc1ccc2ccc(=O)oc2c1 (stereo unspecified)	inactive
Cc1cc(S(=O)(=O)NC2=NNC(C)CN2)c(S)cc1Cl (stereo unspecified)	inactive
CC(C)(C)NC(=O)CCC1C(C(=O)NC(C)(C)C)C2(Cl)C(Cl)=C(Cl)C1(Cl)C2(Cl)Cl (stereo unspecified)	inactive

Challenge: Fill in: this test's call for O=C1CNNC(Cn2nc(-c3ccccc3)c3ccccc3c2=O)=N1 is ___
Response given: inactive

Challenge: Now the compound COc1cccc2cc(C(=O)NC34CC5CC(CC(C5)C3)C4)c(=N)oc12
Response given: inactive

Challenge: Now the compound O=C(O)/C=C/c1ccncc1
Response given: inactive

Challenge: Now the compound COc1ccc(C(C#N)NCCCCCCNC(C#N)c2ccc(OC)cc2)cc1 (stereo unspecified)
Response given: inactive

Challenge: Now the compound CCOC(=O)N1CCC(=C2c3ccc(Cl)cc3CCc3cccnc32)CC1
Response given: inactive

Challenge: Now the compound COc1ccc(C(=O)C(c2ccc(OC)cc2)C2C(=O)Oc3ccccc32)cc1 (stereo unspecified)
Response given: inactive

Challenge: Now the compound CC(C)C[C@H](NC(=O)[C@H](CCc1ccccc1)NC(=O)c1ccc2ccccc2n1)B(O)O
Response given: active
